# assay-comment: Injection formulation administered IV and orally: mouse PK parameters
# Type: in vivo
# condition-parameters: mouse, in vivo; IV 10 mg/kg; read-out: t ½ (converted)
readout-label: half-life

Write down half-life measured for item C=C[C@H]1O[C@H]2C[C@H]3OC[C@@]3(OC(C)=O)[C@H]3[C@H](OC(=O)c4ccccc4)[C@]4(C(C)(C)O)CC(OC(=O)[C@H](O)C(CC(C)C)NC(=O)OC(C)(C)C)C(C)=C4[C@H](OC(C)=O)[C@H](O1)[C@]23C (stereo partly shown)
6.1 h

----------
# assay-comment: Phase 1 Study S-(1)-01 plasma pharmacokinetics (weekly x3, 28-day cycle)
# Assay type: in vivo, human
# condition-parameters: human, plasma, iv, 85 mg/m2; 85 mg/m^2 i.v., first dose, 50:50 Cremophor EL-P/ethanol formulation; read-out: t1/2 (converted)
readout-label: half-life (h)
Report only the number, with the unit h understood.

Write down half-life measured for item C=C[C@H]1O[C@H]2C[C@H]3OC[C@@]3(OC(C)=O)[C@H]3[C@H](OC(=O)c4ccccc4)[C@]4(C(C)(C)O)CC(OC(=O)[C@H](O)C(CC(C)C)NC(=O)OC(C)(C)C)C(C)=C4[C@H](OC(C)=O)[C@H](O1)[C@]23C (stereo partly shown)
5.52

----------
# assay-comment: Phase 1 Study S-(1)-02 plasma pharmacokinetics (every 21 days)
# Format: in vivo, human
# condition-parameters: human, plasma, iv, 56 mg/m2; 56 mg/m^2 i.v., first dose, 15:85 Cremophor EL-P/ethanol formulation; read-out: AUC0-24
readout-label: AUC(0-t) (ng·h/mL)
Report only the number, with the unit ng·h/mL understood.

Write down AUC(0-t) measured for item C=C[C@H]1O[C@H]2C[C@H]3OC[C@@]3(OC(C)=O)[C@H]3[C@H](OC(=O)c4ccccc4)[C@]4(C(C)(C)O)CC(OC(=O)[C@H](O)C(CC(C)C)NC(=O)OC(C)(C)C)C(C)=C4[C@H](OC(C)=O)[C@H](O1)[C@]23C (stereo partly drawn) [S-(1)]
2530

----------
# assay-comment: Phase 1 Study S-(1)-01 plasma pharmacokinetics (weekly x3, 28-day cycle)
# Type: in vivo, human
# condition-parameters: human, plasma, iv, 14 mg/m2; 14 mg/m^2 i.v., first dose, 50:50 Cremophor EL-P/ethanol formulation; read-out: AUC0-24
readout-label: AUC(0-t) (ng·h/mL)
Report only the number, with the unit ng·h/mL understood.

Write down AUC(0-t) measured for item C=C[C@H]1O[C@H]2C[C@H]3OC[C@@]3(OC(C)=O)[C@H]3[C@H](OC(=O)c4ccccc4)[C@]4(C(C)(C)O)CC(OC(=O)[C@H](O)C(CC(C)C)NC(=O)OC(C)(C)C)C(C)=C4[C@H](OC(C)=O)[C@H](O1)[C@]23C (stereo partly drawn) [S-(1)]
457

----------
# assay-comment: Phase 1 Study S-(1)-02 plasma pharmacokinetics (every 21 days)
# Assay type: in vivo, human
# condition-parameters: human, plasma, intravenous, S-(1)-02 study, all dose groups; read-out: Plasma t1/2 values, range over dose groups
readout-label: half-life

Write down half-life measured for item C=C[C@H]1O[C@H]2C[C@H]3OC[C@@]3(OC(C)=O)[C@H]3[C@H](OC(=O)c4ccccc4)[C@]4(C(C)(C)O)CC(OC(=O)[C@H](O)C(CC(C)C)NC(=O)OC(C)(C)C)C(C)=C4[C@H](OC(C)=O)[C@H](O1)[C@]23C (stereo partly shown)
3.43 to 8.96 h

----------
# assay-comment: Injection formulation administered IV and orally: mouse PK parameters
# Assay type: in vivo
# condition-parameters: mouse, in vivo; Oral 10 mg/kg, injection formulation; read-out: t ½ (converted)
readout-label: half-life

Write down half-life measured for item C=C[C@H]1O[C@H]2C[C@H]3OC[C@@]3(OC(C)=O)[C@H]3[C@H](OC(=O)c4ccccc4)[C@]4(C(C)(C)O)CC(OC(=O)[C@H](O)C(CC(C)C)NC(=O)OC(C)(C)C)C(C)=C4[C@H](OC(C)=O)[C@H](O1)[C@]23C (stereo partly shown)
5.1 h
